target: Arginase-2, mitochondrial (Homo sapiens) (UniProt P78540); assay: in vitro enzyme assay to detect the production of urea directly proportional to the activity of Arginase II; format: functional; set-up: scale not given: in the data most compounds retested in dose-response had high values; conditions: 30 µM
Sequence (P78540 whole entry): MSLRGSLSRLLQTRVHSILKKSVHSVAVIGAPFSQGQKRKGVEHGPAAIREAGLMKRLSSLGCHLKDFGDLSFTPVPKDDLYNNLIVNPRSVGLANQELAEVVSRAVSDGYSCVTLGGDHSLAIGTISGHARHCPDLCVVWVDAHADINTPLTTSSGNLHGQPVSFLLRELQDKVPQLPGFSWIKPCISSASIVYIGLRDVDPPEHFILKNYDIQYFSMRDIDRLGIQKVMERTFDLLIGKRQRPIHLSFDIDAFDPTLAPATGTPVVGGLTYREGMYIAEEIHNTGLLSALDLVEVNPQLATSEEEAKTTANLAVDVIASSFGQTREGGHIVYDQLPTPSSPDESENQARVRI
Percent Effect vs 4%: at or above is True, below is False.

Confirm if Percent Effect reported for the compound Cc1ccc(C(C(=O)O)N2CCCN(Cc3ccccn3)CC2)c(F)c1 (stereo unspecified) is 4% or above.
True

Confirm if Percent Effect reported for the compound Cc1cc(NC(=O)C2CN(Cc3ccccc3)CCO2)ccn1 (stereo unspecified) is 4% or above.
False

Confirm if Percent Effect reported for the compound Cc1cccc(OCC(O)CN2CCN(c3nccs3)CC2)c1 (stereo unspecified) is 4% or above.
False

Confirm if Percent Effect reported for the compound CC(=O)N[C@@H](C)C(=O)NCc1cccnc1Oc1ccccc1F is 4% or above.
False

Confirm if Percent Effect reported for the compound CN(C)c1ncccc1CNC(=O)N(Cc1ccccc1F)C1CC1 is 4% or above.
True

Confirm if Percent Effect reported for the compound Cc1ccc([C@@H]2CN(S(=O)(=O)N3CCC(C)CC3)C[C@H]2N(C)C)cc1 is 4% or above.
True

Confirm if Percent Effect reported for the compound COc1ccc2c(c1)OCC(CNC(=O)c1cc(C(C)C)on1)C2 (stereo unspecified) is 4% or above.
False

Confirm if Percent Effect reported for the compound CNC(=O)[C@H]1C[C@@H]2CN(C(=O)c3ccncc3)C[C@@H]2N1S(C)(=O)=O is 4% or above.
True

Confirm if Percent Effect reported for the compound Fc1ccc(CNCc2nnc3n2CC(C(F)(F)F)CC3)c(F)c1 (stereo unspecified) is 4% or above.
True

Confirm if Percent Effect reported for the compound CC(C)(C)OC(=O)Cn1cccc(S(=O)(=O)N2CCCCCC2)c1=O is 4% or above.
True

Confirm if Percent Effect reported for the compound COc1ccc2c(c1)OCC(CNC(=O)NC(C)(C)C)C2 (stereo unspecified) is 4% or above.
True
